# Tested on: S. aureus clinical strain 004N (MRSA)
# run-parameters: 24 h
No end group written: not given here.
Task for the reader: assign each of the following substances its reported MIC.
Enter your answer as a number in µg/mL; do not include the unit.

Field MIC (entry ILRWPWWPWRRK-NH2 [Omiganan AcO^−] ) reads 8

Just so you know, measured MIC for KRRWPWWPWRLI-NH2 [Retro-omiganan AcO^−] came out at 16

Measured MIC of ILRWPWWPWRRK-NH2 [Omiganan Cl^−] : 8

// ILRWPWWPWRRK-NH2 [Omiganan TFA^−] : MIC value = 8

GET /value?item= KRRWPWWPWRLI-NH2 [Retro-omiganan TFA^−] &field=MIC returns 8

MIC measured on KRRWPWWPWRLI-NH2 [Retro-omiganan Cl^−] = 16
